Experiment: yeast display, Sf9 membrane polyspecificity reagent, FACS + sequencing; frameworks hold sequencing errors

>  <sequence chain>
QVQLEESGGGLVQAGGSLRLSCAASGTILDSNAIGWYRQAPGKERELVAAITSCGSTYYADSVKGRFTISRDNAKNTVYLQMNSLKPEDTAVYYCAAAYLGYVAVQPSYEVGYWGQGTQVTVSS

>  <polyreactivity (PSR sort gate)>
low polyreactivity

$$$$
>  <sequence chain>
QVQLVESGGGLVQAGGSLRLSCAASGRTFSWNTMGWYRQAPGKERELVAAITRVGTTYYADSVKGRFTISRDNAKNTVYLQMNSLKPEDTGVYYCNARKVRYPYRWYDYWGQGTQVTVSS

>  <polyreactivity (PSR sort gate)>
high polyreactivity

$$$$
>  <sequence chain>
QVQLQESGGGLVLAGGSLRLSCSASGNISVYGSMGWYRQAPGKEREFVATIDPGTNTNYADSVKDRFTISRDNAKNTVYLQMTSLKPEDTAVYYCAVEAGSDGPYRYWGQGTQVTVSS

>  <polyreactivity (PSR sort gate)>
low polyreactivity

$$$$
>  <sequence chain>
QVQLVESAGGLVQAGGSLSLSCAASGSILSRYAMGWYRQAPGKERELVAAINWSGSSTYYADSVKGRFTISRDNAKNTVYLQMNSLKPEDTAVYYCAKLYVTPRRLPYDYWGQGTQVPVSS

>  <polyreactivity (PSR sort gate)>
high polyreactivity

$$$$
>  <sequence chain>
QVQLVESGGGLVQAGGRLRLSSAASGRTFYPNAMGWYRKAPLKERELVAAISGSGGSTYYADSVKGRFTISRDNAKNTVYLQMNSLKPEDTAVYYCAAYPEYLVGYRYGSWGQGTQVTVSS

>  <polyreactivity (PSR sort gate)>
high polyreactivity

$$$$

###

Test: yeast display, Sf9 membrane polyspecificity reagent, FACS + sequencing; frameworks hold sequencing errors

>  <sequence chain>
QVQLVESGVGLVQAGGSLRLSCAASGLTYYGYVMGWYRQAPGKERELVAAISQSGGTTYYADSVNGRFTISRDNAKNTFYLHMNSLTPEDTAVYYCAADHFYILIFLYGKLTLDYWGQGTQVTVSS

>  <polyreactivity (PSR sort gate)>
high polyreactivity

$$$$
>  <sequence chain>
QVQLVESGGGLVQAGGSLRLSCAASGIIFANNDMGWSRQAPGKERELVAVITFSDGSTYYADSVKGRFTISRDNAKNTVYLQMNSLKPEDTAVYYCATRIRSYYYWGQGTQVTVSS

>  <polyreactivity (PSR sort gate)>
high polyreactivity

$$$$
>  <sequence chain>
QVQLVDSGGGLVQAGGSLRLSCADSGSIFPANVMGWYRQAPGKERELVAAISRGGSTYYADSVKGRFTISRDNAKNTVYLQMNSLKPEDTAVYYCAVAFRGSYRPAYYYWGQGTQVTVSS

>  <polyreactivity (PSR sort gate)>
high polyreactivity

$$$$

###

Assay: yeast display, Sf9 membrane polyspecificity reagent, FACS + sequencing; frameworks hold sequencing errors
assay readout: polyreactivity (PSR sort gate)

>  <sequence chain>
QVQLVESGGGLVQPGGSLRLSCAASGIISFYNAMGWYRPAPGKERELVAAITWSVGSTYYADSVKGRFTISRDNAKNTVYLQMNSLKPEDTAVYYCNVSPGFWRSIPLYYNLRYGYWGQGTQVTVSS

>  <assay readout>
polyreactivity (PSR sort gate)

>  <result>
low polyreactivity

$$$$
>  <sequence chain>
QVQLVESGGGLVQAGGSLRLSCAASGTTFILNAMGWYRQAPGKDRELVATISSSDTSTYYADSVKGRFTISRDNAKNTVYLQMNSLKPEDTAVYYCNADYYTTSYLQRVFHYGVEYDYWGQGTQVTVSS

>  <assay readout>
polyreactivity (PSR sort gate)

>  <result>
low polyreactivity

$$$$
>  <sequence chain>
QVQLVESGGGLVQAGGSLRLSCAASGSTSVPYAMGWYRQAPGKERELVAAITIGGSTNYADSVKGRFTISRDNAKNTVYLQMNSLKPEDTAVYYCNAVLTQYWKLVRYYGVDYWGQGTQVTVSS

>  <assay readout>
polyreactivity (PSR sort gate)

>  <result>
low polyreactivity

$$$$
>  <sequence chain>
QVQLVESGGGLVQAGGSLRISCAASGSIFRRNAMGWYRQAPGKERELVATITSDGSTDYADSVKGRFTISRDNAKYTVYLQMNRLKPEDTVYYCAAGRTPYWHATFGYWGQGTQVTVSS

>  <assay readout>
polyreactivity (PSR sort gate)

>  <result>
low polyreactivity

$$$$
>  <sequence chain>
QVQLVESGGGLVQAGGSLRLSCSASGRIFVDNALGWYRQAPGKERELVATITSTGSTNYADSEKGRFTISRDNGMNTFYLQMNSLKPEDTAFYYCNADGIMQDYDYWGQVTQVTVSS

>  <assay readout>
polyreactivity (PSR sort gate)

>  <result>
low polyreactivity

$$$$
>  <sequence chain>
QVQLVESGGGLVQAGCSLRLSCAASGFIFTSYAMGWYRQAPGKERDLVAAITRSGGRTYYADSVKGRFTISLDNAKITVYLQMNSLKPEDTAVYYCAAVTFYQSPARGYWGQGTQVTVSS

>  <assay readout>
polyreactivity (PSR sort gate)

>  <result>
high polyreactivity

$$$$
>  <sequence chain>
QVQLEESRRGLVQARGSLRLSCASSGYIFLYYALGCYRQAPGKERELVAAITTRGGRTYYADSVKGRFTISRDNAKNTVYVQMNSLKPEDTAVYYCAVEVSWSYYSYGYWGQGTQVTVSS

>  <assay readout>
polyreactivity (PSR sort gate)

>  <result>
low polyreactivity

$$$$
>  <sequence chain>
QVQLVESGGGLVQAGGSLRISCDASGSTFKLYPMGWYRQAPGKEREFVAAISRSGGSTNYADSVNGRFTISRDNAKNTVYLQMNSLKPEDTAVYYCAARYPGNYDYWGQGTQVTVSS

>  <assay readout>
polyreactivity (PSR sort gate)

>  <result>
high polyreactivity

$$$$
>  <sequence chain>
QVQLVESGGGLVQAGGSLRLSCAASGSTFVINAMGWYRQAPGKERELVADIDYRGGSTNYADSVKGRFTISRDNAKNTVYLQMNSLKPEDTAVYYCNKRYVIRRRGYDYWGQGTQVTVSS

>  <assay readout>
polyreactivity (PSR sort gate)

>  <result>
low polyreactivity

$$$$
>  <sequence chain>
QVQLVESGGGLVQAGGSLRLSCAASGITFYEYTMGWYRQAPGKETELVAVIRKTGGSTYYADSVKGRFTISRDNAKNTVYLQMNSLKPEDTAVYYCNARYGGSGRVPRSYDYWGQGTQVTVSS

>  <assay readout>
polyreactivity (PSR sort gate)

>  <result>
high polyreactivity

$$$$
>  <sequence chain>
QVQLVESGGGLVQAGGSLRLSCAASGSIFVYNAMGRYRQAPGKERELVAAISRSGASTYYADSVKGRFTISRDNAKNTVYLQMNSLKPEDTAVYYCAAEFRQGGYTFGYWGQGTQVTVSS

>  <assay readout>
polyreactivity (PSR sort gate)

>  <result>
high polyreactivity

$$$$
